From: paper PMC2978023

- Tested on: αMβ2 on PMN
- measurement-protocol: Soluble Alexa 488-labeled ligand binding to PMN, FACS
- Design: species or system human
- run-parameters: clustering inhibitor, 1 h, 37 °C, mean ± SEM, n = 3
Peptide text beside a SMILES is read from it. * marks the point of attachment. Cbz = O=C(OCc1ccccc1)*
# Lookup of reported ligand binding, inhibitor, no ligand (background) keyed by entry
Field: value (include unit after the number)

Completed entries (count: 3):
C=C1[C@@H](C)[C@H]2[C@H](Cc3ccccc3)NC(=O)[C@]23[C@H](OC(C)=O)/C=C/[C@@](C)(O)C(=O)[C@@H](C)C/C=C/[C@H]3[C@@H]1O [Cytochalasin D, cytochalasin D]	2.3 ± 0.3 MFI
CC(=O)C(C)=NO [BDM, 2,3-butanedione 2-monoxime]	2.90 ± 0.5 MFI
CC1CNCCN1S(=O)(=O)c1cccc2cnccc12.Cl.Cl (stereo not shown) [H7]	3.2 ± 0.6 MFI

Next molecule, ligand binding, inhibitor, no ligand (background) to be filled in.
## Input Any idea what its ligand binding, inhibitor, no ligand (background) is? The molecule is CC(C)[C@H](NC(=O)OCc1ccccc1)C(=O)N[C@H](C=O)Cc1ccccc1 [Calpain inhibitor III] (Cbz-Val-Phe-aldehyde)
## Output 3.4 ± 0.4 MFI

----------
- target-under-test: recombinant purified β2 subunit (Homo sapiens, UniProt P05107)
- Sequence (P05107 23-769): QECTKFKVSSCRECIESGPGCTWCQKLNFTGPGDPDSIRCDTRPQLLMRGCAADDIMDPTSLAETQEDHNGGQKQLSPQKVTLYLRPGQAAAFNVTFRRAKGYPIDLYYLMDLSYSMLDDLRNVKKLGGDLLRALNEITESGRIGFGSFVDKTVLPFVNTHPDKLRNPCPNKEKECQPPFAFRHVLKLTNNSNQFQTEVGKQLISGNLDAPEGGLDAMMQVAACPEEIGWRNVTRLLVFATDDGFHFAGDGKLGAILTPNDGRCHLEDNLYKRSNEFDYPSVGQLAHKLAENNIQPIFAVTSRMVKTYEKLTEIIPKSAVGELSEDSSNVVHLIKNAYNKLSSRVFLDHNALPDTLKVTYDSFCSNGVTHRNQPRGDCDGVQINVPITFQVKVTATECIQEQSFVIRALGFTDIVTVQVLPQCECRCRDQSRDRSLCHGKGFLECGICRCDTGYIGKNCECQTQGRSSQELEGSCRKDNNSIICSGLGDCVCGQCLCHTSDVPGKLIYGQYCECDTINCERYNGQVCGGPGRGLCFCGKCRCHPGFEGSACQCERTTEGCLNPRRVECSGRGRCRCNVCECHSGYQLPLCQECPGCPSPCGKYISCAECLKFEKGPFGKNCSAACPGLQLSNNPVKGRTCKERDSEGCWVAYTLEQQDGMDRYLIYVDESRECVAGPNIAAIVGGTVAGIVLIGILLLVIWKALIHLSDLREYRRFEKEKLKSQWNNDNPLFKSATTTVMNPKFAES
- measurement-protocol: Solid-phase binding to purified β2 subunit
Ends that are not written are not given here.
readout: pKd
Answer as the number alone; pKd is minus log10 of concentration in mol/L.

## Input Item under review: KIIPFNRLTIG [P2-C] . Reported pKd?
## Output 7.30

----------
- Tested on: human PMNs
- run-parameters: clustering inhibitor + P1 100 μM, 16 h, 37 °C; mean ± SEM, n = 5
Peptide text beside a SMILES is read from it. * marks the point of attachment. Cbz = O=C(OCc1ccccc1)*
readout: PMN early/late apoptosis (% annexin V+ cells), inhibitor + P1 (%)
Respond with the bare value in %.

CC(=O)C(C)=NO	85.4
CC(C)[C@H](NC(=O)OCc1ccccc1)C(=O)N[C@H](C=O)Cc1ccccc1 [Calpain inhibitor III] (Cbz-Val-Phe-aldehyde)	94.5
C=C1[C@@H](C)[C@H]2[C@H](Cc3ccccc3)NC(=O)[C@]23[C@H](OC(C)=O)/C=C/[C@@](C)(O)C(=O)[C@@H](C)C/C=C/[C@H]3[C@@H]1O	66.07

## Input Entry under review: CC1CNCCN1S(=O)(=O)c1cccc2cnccc12.Cl.Cl (stereo not shown) . Reported PMN early/late apoptosis (% annexin V+ cells), inhibitor + P1?
## Output 60.1

----------
- Test system: human PMNs
- run-parameters: clustering inhibitor + Fg 1 μM, 16 h, 37 °C; mean ± SEM, n = 5
Peptide text beside a SMILES is read from it. * marks the point of attachment. Cbz = O=C(OCc1ccccc1)*
Below, each entry is listed alongside its reported PMN early/late apoptosis (% annexin V+ cells), inhibitor + Fg.
Please respond with the number in % and leave the unit unwritten.

CC(C)[C@H](NC(=O)OCc1ccccc1)C(=O)N[C@H](C=O)Cc1ccccc1 [Calpain inhibitor III] (Cbz-Val-Phe-aldehyde)	88.9
CC(=O)C(C)=NO	98.7
CC1CNCCN1S(=O)(=O)c1cccc2cnccc12.Cl.Cl (stereo not shown)	62.3

// next item, PMN early/late apoptosis (% annexin V+ cells), inhibitor + Fg requested
## Input // fetch human PMNs PMN early/late apoptosis (% annexin V+ cells), inhibitor + Fg for `C=C1[C@@H](C)[C@H]2[C@H](Cc3ccccc3)NC(=O)[C@]23[C@H](OC(C)=O)/C=C/[C@@](C)(O)C(=O)[C@@H](C)C/C=C/[C@H]3[C@@H]1O`
## Output 55.5
